Target: HSA (Homo sapiens)
Construct: purchased Sigma Aldrich A1887
Test: Fluorescence of NBD and dansyl dyes with increasing HSA (FRET effect, emission maxima)
Format: binding
Conditions: NBD compound 25 μM, λex = 480 nm
quantity-name: Δλ, shift of emission maximum λem without HSA vs with HSA
Just so you know, I need the unit written after the number.

1. O=C(O)CCCCCCCCCNc1ccc([N+](=O)[O-])c2nonc12 = 16 nm

Look up and report measured Δλ, shift of emission maximum λem without HSA vs with HSA (HSA (Homo sapiens)) for the following compound: O=C(O)CNc1ccc([N+](=O)[O-])c2nonc12 0 nm

Report Δλ, shift of emission maximum λem without HSA vs with HSA on HSA (Homo sapiens) for this entry: O=C(O)CCCCCNc1ccc([N+](=O)[O-])c2nonc12 0 nm

Recall the reported Δλ, shift of emission maximum λem without HSA vs with HSA of O=C(O)CCCNc1ccc([N+](=O)[O-])c2nonc12 on HSA (Homo sapiens) and write it down. 2 nm

Enter Δλ, shift of emission maximum λem without HSA vs with HSA (test system HSA (Homo sapiens)) for O=C(O)CCCCCCCNc1ccc([N+](=O)[O-])c2nonc12 10 nm

Enter Δλ, shift of emission maximum λem without HSA vs with HSA (test system HSA (Homo sapiens)) for O=C(O)CCCCCCCCCCCNc1ccc([N+](=O)[O-])c2nonc12 16 nm

* * *

Experiment: log D7.4 determination by RP-HPLC, similar to the water/octanol partition coefficient method
Format: physicochemical
Conditions: pH 7.4, RP-HPLC C18, range −1 to +6
Method: log D7.4 values were determined by a method similar to the partition coefficient method in a water/octanol mixture and were carried out on an RP-HPLC from Waters Alliance (2795) having a C18 column (2×20 mm) with a gradient of morpholinesulfonic acid buffer (pH 7.4) and acetonitrile. The range was between −1 ([…]) to +6 (lipophilic).
log D7.4 values for the compounds below.
Enter the number alone.

1. CN(C)c1cccc2c(S(=O)(=O)NCCCCCCCCCCCC(=O)O)cccc12 [dansyl C12 (24)] = 3.49
2. O=C(O)CCCCCCCCCCCNc1ccc([N+](=O)[O-])c2nonc12 [NBD C12 (17)] = 2.84

Let us move to another entry and its log D7.4.
Name the recorded log D7.4 of the compound listed here: O=C(O)CCCNc1ccc([N+](=O)[O-])c2nonc12 [NBD C4 (13)] −0.46

* * *

Biological target: HSA (Homo sapiens, UniProt P02768)
Construct: purchased Sigma Aldrich A1887
Sequence (P02768 25-609): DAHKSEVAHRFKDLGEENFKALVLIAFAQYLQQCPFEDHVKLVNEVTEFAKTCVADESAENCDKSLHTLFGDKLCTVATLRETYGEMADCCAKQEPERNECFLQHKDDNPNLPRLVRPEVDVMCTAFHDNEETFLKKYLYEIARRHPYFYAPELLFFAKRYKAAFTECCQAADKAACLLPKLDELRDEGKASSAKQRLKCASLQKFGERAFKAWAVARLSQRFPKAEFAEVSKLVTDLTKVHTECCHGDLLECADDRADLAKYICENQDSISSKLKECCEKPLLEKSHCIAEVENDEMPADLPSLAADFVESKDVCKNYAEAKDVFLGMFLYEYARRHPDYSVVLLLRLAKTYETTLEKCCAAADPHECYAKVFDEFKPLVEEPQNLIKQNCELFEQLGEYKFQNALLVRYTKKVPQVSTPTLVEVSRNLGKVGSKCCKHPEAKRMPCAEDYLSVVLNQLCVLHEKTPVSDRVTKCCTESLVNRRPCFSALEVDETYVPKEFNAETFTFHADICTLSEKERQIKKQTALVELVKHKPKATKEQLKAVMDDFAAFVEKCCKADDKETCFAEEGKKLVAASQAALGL
Experiment: Displacement of NBD derivatives on HSA by natural fatty acids C6 to C16 (fluorescence)
Assay type: binding
Parameters: key: + stands for displacement; − for no displacement
Conditions: NBD-HSA mixture 25 μM, 1:1; competitor natural fatty acid
quantity-name: displacement of NBD C12 (17) bound to HSA

1) CCCCCCCCCC(=O)O = −
2) CCCCCCCCCCCC(=O)O = +
3) CCCCCCCCCCCCCC(=O)O = +
4) CCCCCC(=O)O = −

* * *

Target: HSA (Homo sapiens, UniProt P02768)
Construct: purchased Sigma Aldrich A1887
Assay: Displacement of NBD derivatives on HSA by natural fatty acids C6 to C16 (fluorescence)
Assay type: binding
Parameters: key: + stands for displacement; − for no displacement
Details: NBD-HSA mixture 25 μM, 1:1; competitor natural fatty acid
quantity-name: displacement of NBD C8 (15) bound to HSA

1) CCCCCCCCCCCC(=O)O = +
2) CCCCCCCCCCCCCC(=O)O = +
3) CCCCCCCCCC(=O)O = +
4) CCCCCC(=O)O = −
